# experimentalTarget: Voltage-dependent T-type calcium channel subunit alpha-1H (Homo sapiens)
# assaySummary: Inhibition of human T-type calcium channel Cav3.2 expressed in T-Rex293 cells by whole cell patch clamp assay
# Type: cell-based, HEK293
measure: IC50

Known IC50 results, listed for orientation:
CC(C)(C)NC(=O)NCCN1CCCC(NC(=O)c2cc(Cl)cc(Cl)c2)C1 (stereo not given) :: 500 nM
CC(C)(C)OC(=O)NCCN1CCN(CC(=O)NC23CC4CC(CC(C4)C2)C3)CC1 :: 1200 nM
CC(C)(C)NC(=O)NCCN1CCC(CNC(=O)c2cc(Cl)cc(Cl)c2)CC1 :: 500 nM
CC(C)(C)CS(=O)(=O)NCCN1CCN(CC(=O)NC23CC4CC(CC(C4)C2)C3)CC1 :: 900 nM
CC(C)(C)C(=O)NCCCN1CCN(CC(=O)NC23CC4CC(CC(C4)C2)C3)CC1 :: 1300 nM
CC(C)(C)NC(=O)NCCCN1CCN(CC(=O)NC23CC4CC(CC(C4)C2)C3)CC1 :: 1200 nM

Data request: Fill in the blank: the reported IC50 of `CC(C)(C)NC(=O)NCCN1CC(NC(=O)c2cc(Cl)cc(Cl)c2)C1` is ____.
Data returned: 800 nM

Data request: Item under review: CC(C)(C)NC(=O)NCCN1CCCC(CNC(=O)c2cc(Cl)cc(Cl)c2)C1 (stereo not given) . Reported IC50?
Data returned: 500 nM

Data request: What value of IC50 has been reported for the following compound? CC(C)(C)NC(=O)NCCN1CCC(NC(=O)c2cc(Cl)cc(Cl)c2)C1 (stereo not given)
Data returned: 800 nM

Data request: Any idea what its IC50 is? The compound is CC(C)(C)NC(=O)NCCN1CCC(CNC(=O)c2cc(Cl)cc(Cl)c2)C1 (stereo not given)
Data returned: 400 nM

###

# experimentalTarget: Voltage-dependent T-type calcium channel subunit alpha-1H (Homo sapiens, UniProt O95180)
# Sequence (O95180 whole entry): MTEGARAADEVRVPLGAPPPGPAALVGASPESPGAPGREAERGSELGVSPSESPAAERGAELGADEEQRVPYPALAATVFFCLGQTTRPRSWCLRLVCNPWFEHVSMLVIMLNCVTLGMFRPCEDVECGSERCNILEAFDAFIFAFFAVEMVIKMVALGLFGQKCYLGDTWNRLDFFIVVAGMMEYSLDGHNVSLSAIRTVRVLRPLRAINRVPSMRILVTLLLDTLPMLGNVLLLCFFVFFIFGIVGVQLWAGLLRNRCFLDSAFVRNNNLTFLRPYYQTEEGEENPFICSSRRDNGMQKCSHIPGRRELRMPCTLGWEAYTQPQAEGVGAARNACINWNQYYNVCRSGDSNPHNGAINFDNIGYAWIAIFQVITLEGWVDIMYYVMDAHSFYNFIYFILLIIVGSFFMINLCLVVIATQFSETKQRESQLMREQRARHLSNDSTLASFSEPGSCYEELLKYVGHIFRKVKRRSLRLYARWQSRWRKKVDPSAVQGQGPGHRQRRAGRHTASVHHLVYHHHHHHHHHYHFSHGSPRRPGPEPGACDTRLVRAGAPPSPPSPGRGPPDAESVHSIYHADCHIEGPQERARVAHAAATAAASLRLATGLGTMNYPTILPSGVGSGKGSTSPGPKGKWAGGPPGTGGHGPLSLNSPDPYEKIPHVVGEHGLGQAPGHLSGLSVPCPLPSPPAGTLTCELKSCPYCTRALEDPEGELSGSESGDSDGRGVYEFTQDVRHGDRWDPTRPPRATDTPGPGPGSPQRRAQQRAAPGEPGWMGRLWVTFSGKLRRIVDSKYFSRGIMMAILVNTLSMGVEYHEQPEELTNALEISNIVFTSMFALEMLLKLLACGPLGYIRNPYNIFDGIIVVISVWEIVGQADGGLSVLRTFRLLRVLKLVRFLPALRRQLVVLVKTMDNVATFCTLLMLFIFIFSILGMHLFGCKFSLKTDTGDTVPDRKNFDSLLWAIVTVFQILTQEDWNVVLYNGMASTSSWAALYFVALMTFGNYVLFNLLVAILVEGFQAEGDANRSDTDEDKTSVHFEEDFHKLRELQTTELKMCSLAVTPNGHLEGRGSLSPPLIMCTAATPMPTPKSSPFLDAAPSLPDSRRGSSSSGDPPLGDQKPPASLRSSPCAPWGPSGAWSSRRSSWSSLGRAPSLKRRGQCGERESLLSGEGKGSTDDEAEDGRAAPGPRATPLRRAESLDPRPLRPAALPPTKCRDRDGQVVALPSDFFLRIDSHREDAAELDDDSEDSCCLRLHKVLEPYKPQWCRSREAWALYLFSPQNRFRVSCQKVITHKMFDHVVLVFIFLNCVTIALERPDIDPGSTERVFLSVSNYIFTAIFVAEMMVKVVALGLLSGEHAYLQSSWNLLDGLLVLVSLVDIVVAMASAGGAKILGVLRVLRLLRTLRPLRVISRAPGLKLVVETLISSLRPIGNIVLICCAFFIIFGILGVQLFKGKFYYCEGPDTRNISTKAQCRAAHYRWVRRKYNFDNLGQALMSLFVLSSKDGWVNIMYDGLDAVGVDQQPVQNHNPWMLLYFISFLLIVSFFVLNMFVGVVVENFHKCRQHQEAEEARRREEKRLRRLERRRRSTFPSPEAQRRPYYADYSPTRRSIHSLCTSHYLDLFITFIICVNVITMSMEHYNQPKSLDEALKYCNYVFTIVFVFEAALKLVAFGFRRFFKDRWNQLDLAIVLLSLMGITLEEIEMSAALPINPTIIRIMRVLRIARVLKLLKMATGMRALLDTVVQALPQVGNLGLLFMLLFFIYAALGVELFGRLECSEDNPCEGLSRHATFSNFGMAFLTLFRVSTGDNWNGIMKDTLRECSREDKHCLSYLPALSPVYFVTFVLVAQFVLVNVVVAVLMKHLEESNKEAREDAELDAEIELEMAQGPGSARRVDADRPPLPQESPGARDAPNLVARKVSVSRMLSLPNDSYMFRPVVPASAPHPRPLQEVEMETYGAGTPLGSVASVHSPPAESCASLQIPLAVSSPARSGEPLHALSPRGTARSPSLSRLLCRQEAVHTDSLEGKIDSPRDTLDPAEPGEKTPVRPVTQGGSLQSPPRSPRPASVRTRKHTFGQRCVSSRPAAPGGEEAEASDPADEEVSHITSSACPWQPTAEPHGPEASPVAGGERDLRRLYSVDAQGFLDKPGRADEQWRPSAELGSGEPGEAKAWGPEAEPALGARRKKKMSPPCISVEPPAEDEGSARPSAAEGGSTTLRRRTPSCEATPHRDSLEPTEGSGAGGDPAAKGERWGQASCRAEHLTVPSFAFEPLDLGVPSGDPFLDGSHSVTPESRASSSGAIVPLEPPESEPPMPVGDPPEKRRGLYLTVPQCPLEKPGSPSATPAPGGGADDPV
# assaySummary: Inhibition of human T-type calcium channel Cav3.2 expressed in T-Rex293 cells by whole cell patch clamp assay
# Type: cell-based, HEK293
measure: pIC50
For clarity, pIC50 is expressed as the negative log10 of concentration in mol/L.

Examples from the recorded data:
CC(C)(C)NC(=O)CN1CCN(CC(=O)NC23CC4CC(CC(C4)C2)C3)CC1 :: 6.00
CC(C)(C)NC(=O)NCCN1CCC(O)(CNC(=O)c2cc(Cl)cc(Cl)c2)CC1 :: 6.22
CC(C)(C)NC(=O)NCCN1CCN(CC(=O)NC23CC4CC(CC(C4)C2)C3)CC1 :: 6.30
CC(C)(C)NC(=O)NCCN1CCN(CC(=O)Nc2cc(Cl)cc(Cl)c2)CC1 :: 6.52
CC(C)(C)NC(=O)NCCN1CCC(CO)(CNC(=O)c2cc(Cl)cc(Cl)c2)CC1 :: 6.22

Data request: pIC50 lookup needed for CC(C)(C)NC(=O)NCCN1CCOC(CNC(=O)c2cc(Cl)cc(Cl)c2)C1 (centres undefined) , thanks.
Data returned: 5.48

Data request: Return reported pIC50; argument: `CC(C)(C)NCCN1CCN(CC(=O)NC23CC4CC(CC(C4)C2)C3)CC1`
Data returned: 5.31

Data request: Please give the measured pIC50 for this compound: `CC(C)(C)S(=O)(=O)CCCN1CCN(CC(=O)NC23CC4CC(CC(C4)C2)C3)CC1`
Data returned: 5.62

Data request: Endpoint output: pIC50 of `CC(C)(C)C(=O)NCCN1CCN(CC(=O)NC23CC4CC(CC(C4)C2)C3)CC1` . Value?
Data returned: 5.52

Sourced from ChEMBL document CHEMBL2331553
